- Test Method Notes: Color of crystalline ALA hydrochloride in sealed vials after gamma irradiation
- Assay type: physicochemical
- Reported Conditions: crystals in sealed 60 ml glass vials after gamma radiation at the target dose (0, 15 or 30 KGys)
Reported Property: color

Illustrative cases are given below, each with its answer.
Compound	Result
NCC(=O)CCC(=O)O [Example 7, 5-aminolevulinic acid]	yellow
NCC(=O)CCC(=O)O [Example 9, 5-aminolevulinic acid]	yellow
NCC(=O)CCC(=O)O [Example 5, 5-aminolevulinic acid]	yellow
NCC(=O)CCC(=O)O [Comp. Ex. 2, 5-aminolevulinic acid]	off white
NCC(=O)CCC(=O)O [Example 1, 5-aminolevulinic acid]	yellow
NCC(=O)CCC(=O)O [Comp. Ex. 3, 5-aminolevulinic acid]	off white

Look up color of NCC(=O)CCC(=O)O [Example 2, 5-aminolevulinic acid] and report it. yellow

Please supply the value of reported color for the item NCC(=O)CCC(=O)O [Comp. Ex. 4, 5-aminolevulinic acid] off white

For the compound NCC(=O)CCC(=O)O [Example 3, 5-aminolevulinic acid] , give its reported color. yellow

Data provenance is patent US6335465B1.
